- testedSystem: ERK2 (Rattus norvegicus)
- Sequence (P63086 whole entry): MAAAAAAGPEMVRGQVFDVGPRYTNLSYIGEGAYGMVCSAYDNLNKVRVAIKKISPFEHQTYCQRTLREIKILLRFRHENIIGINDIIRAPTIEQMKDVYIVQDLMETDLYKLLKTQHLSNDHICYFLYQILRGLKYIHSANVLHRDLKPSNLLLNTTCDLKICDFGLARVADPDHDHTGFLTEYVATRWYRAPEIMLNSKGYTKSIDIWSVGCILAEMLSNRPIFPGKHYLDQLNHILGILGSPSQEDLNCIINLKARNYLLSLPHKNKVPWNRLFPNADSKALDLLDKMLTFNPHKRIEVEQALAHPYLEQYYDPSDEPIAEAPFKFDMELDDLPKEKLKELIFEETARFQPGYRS
- assayOverview: Dose-response effect of docking ligands on ERK2 phosphorylation of Sub-F
- Assay type: biochemical
measurementType: pIC50
Recall that pIC50 is obtained by taking minus log10 of the concentration measured in molar.

IN: Query: pIC50; subject: Ac-YAPRAPAKLAFQFPSR-NH2 [Lig-F]
OUT: 4.46

* * *

- testedSystem: ERK2 (Rattus norvegicus)
- assayOverview: Kinetics of Sub-F phosphorylation by ERK2 at saturating Lig-D
- Type: biochemical
Where no end group is shown, it is not given here.
measurementType: Ki (µM)
Your answer should be a plain number; it is taken to be in µM.

IN: Query: Ki; subject: YAEPLTPRILAKWEWPA-NH2 [Sub-F]
OUT: 5
